- measured.target: TLR7 receptor (Homo sapiens, UniProt Q9NYK1)
- Construct: PBL contain as a subpopulation plasmacytoid dendritic cells which are the natural interferon producing cells; endogenous in cells
- Sequence (Q9NYK1 27-1049): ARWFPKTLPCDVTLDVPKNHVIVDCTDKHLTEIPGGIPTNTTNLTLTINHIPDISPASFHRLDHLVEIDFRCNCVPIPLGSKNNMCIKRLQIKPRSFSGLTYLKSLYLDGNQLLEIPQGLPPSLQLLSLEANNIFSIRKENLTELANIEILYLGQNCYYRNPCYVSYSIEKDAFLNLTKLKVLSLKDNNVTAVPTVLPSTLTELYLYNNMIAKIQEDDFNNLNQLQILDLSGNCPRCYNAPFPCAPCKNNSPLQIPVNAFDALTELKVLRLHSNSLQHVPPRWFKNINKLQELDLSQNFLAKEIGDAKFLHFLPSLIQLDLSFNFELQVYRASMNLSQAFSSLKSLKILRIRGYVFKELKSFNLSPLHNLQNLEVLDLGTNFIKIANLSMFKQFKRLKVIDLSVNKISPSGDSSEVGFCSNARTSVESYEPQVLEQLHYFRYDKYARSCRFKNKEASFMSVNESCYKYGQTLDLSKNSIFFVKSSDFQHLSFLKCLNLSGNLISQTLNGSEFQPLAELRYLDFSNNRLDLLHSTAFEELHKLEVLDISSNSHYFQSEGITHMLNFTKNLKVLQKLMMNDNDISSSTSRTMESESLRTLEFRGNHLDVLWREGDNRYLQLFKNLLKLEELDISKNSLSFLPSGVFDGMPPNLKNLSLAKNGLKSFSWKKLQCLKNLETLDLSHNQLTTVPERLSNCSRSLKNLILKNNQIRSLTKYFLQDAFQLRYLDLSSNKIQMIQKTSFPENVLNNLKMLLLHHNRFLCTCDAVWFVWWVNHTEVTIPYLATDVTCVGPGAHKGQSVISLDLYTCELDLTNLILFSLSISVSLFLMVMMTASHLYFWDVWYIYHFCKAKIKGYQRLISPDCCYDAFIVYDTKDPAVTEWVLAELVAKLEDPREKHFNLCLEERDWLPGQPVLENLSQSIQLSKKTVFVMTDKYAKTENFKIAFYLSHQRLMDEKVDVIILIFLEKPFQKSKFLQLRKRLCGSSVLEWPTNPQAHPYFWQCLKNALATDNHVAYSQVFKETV
- protocol.description: PBL/HCV replicon bioassay
- condition.details: concentration applied to PBL (24 h) giving 50% reduction of HCV replicon levels (luciferase) after transfer of PBL culture medium to Huh-7 replicon cells (48 h)
parameter: EC50 (nM)

- line.notation: "CCCc1cc2c([nH]c(=O)n2Cc2ccccc2)c(N)n1"
  EC50 (nM): 1080

A. COCCNCc1cc2c([nH]c(=O)n2Cc2ccccc2)c(N)n1
B. Nc1nc(C(F)F)cc2c1[nH]c(=O)n2Cc1ccccc1
Q: Hi! Which is lower in terms of EC50, the first one A or the second one B ? Pick one and reply with its label.
Ans: B
